Taken from paper PMC10006169.

Assay: Plasma pharmacokinetics (LC-MS/MS)
Type: in vivo, human
Settings: human, plasma, oral, 200 mg, C1D1, 200 mg QD, n=3; read-out: AUCinf, Geo-mean
propertyMeasured: AUC(0-inf) (ng·h/mL)

[
  {
    "molecule": "CC1(N)CCN(c2cccnc2NC(=O)c2nc(-c3ncccc3C(F)(F)F)cnc2N)CC1 [LXS196]",
    "reportedResult": 21300
  }
]

---

Assay: Plasma pharmacokinetics (LC-MS/MS)
Assay type: in vivo, human
Details: human, plasma, oral, 500 mg, C1D15, 500 mg QD, n=9; read-out: Cmax, Median (Min, max)
Protocol: In the dose escalation part of the study, PK samples were collected at various pre- and post-dose time points on C1D1, D2, D3, D15 and D16. Drug concentrations were assessed using a validated liquid chromatography-tandem mass spectrometry assay.

[
  {
    "compound": "CC1(N)CCN(c2cccnc2NC(=O)c2nc(-c3ncccc3C(F)(F)F)cnc2N)CC1 [LXS196]",
    "Cmax (ng/mL)": 3700
  }
]

---

Test: Plasma pharmacokinetics (LC-MS/MS)
Format: in vivo, human
Settings: human, plasma, oral, 500 mg, C1D15, 500 mg QD, n=9; read-out: AUC0-t, Geo-mean
Description: In the dose escalation part of the study, PK samples were collected at various pre- and post-dose time points on C1D1, D2, D3, D15 and D16. Drug concentrations were assessed using a validated liquid chromatography-tandem mass spectrometry assay.

[
  {
    "molecularString": "CC1(N)CCN(c2cccnc2NC(=O)c2nc(-c3ncccc3C(F)(F)F)cnc2N)CC1",
    "AUC(0-t) [ng·h/mL]": 43100
  }
]

---

Assay: Plasma pharmacokinetics (LC-MS/MS)
Type: in vivo, human
Details: human, plasma, oral, 200 mg, C1D1, 200 mg QD, n=3; read-out: T1/2, Median (Min, max) (converted)

[
  {
    "molecularString": "CC1(N)CCN(c2cccnc2NC(=O)c2nc(-c3ncccc3C(F)(F)F)cnc2N)CC1",
    "unitName": "h",
    "half-life": 8.44
  }
]

---

Assay: Plasma pharmacokinetics (LC-MS/MS)
Type: in vivo, human
Settings: human, plasma, oral, 100 mg, C1D15, 100 mg QD, n=3; read-out: Cmin, Median (Min, max)

[
  {
    "molecularString": "CC1(N)CCN(c2cccnc2NC(=O)c2nc(-c3ncccc3C(F)(F)F)cnc2N)CC1",
    "concentration at 15 day": "112 ng/mL"
  }
]

---

Assay: Plasma pharmacokinetics (LC-MS/MS)
Type: in vivo, human
Conditions: human, plasma, oral, 400 mg, C1D15, 400 mg BID, n=4; read-out: Cmax, Median (Min, max)
propertyMeasured: Cmax (ng/mL)

[
  {
    "compound": "CC1(N)CCN(c2cccnc2NC(=O)c2nc(-c3ncccc3C(F)(F)F)cnc2N)CC1 [LXS196]",
    "reportedResult": 2060
  }
]

---

Test: Plasma pharmacokinetics (LC-MS/MS)
Type: in vivo, human
Conditions: human, plasma, oral, 200 mg, C1D1, 200 mg BID, n=6; read-out: Tmax, Median (Min, max)

[
  {
    "molecularString": "CC1(N)CCN(c2cccnc2NC(=O)c2nc(-c3ncccc3C(F)(F)F)cnc2N)CC1",
    "unitName": "min",
    "Tmax": 31.5
  }
]
